The reported measurements were obtained from ChEMBL document CHEMBL4765236.

test system: Escherichia coli; experiment: Antibacterial activity against Escherichia coli ATCC 35150 assessed as bacterial growth inhibition incubated for 18 to 24 hrs by microtiter broth dilution method; type: functional; conditions: time 18-24 hrs
Assignment: determine reported MIC for the given substances.
Numbers only, in µM.

Some solved cases for reference:
INSERT INTO results (substance, measure_name, output_unit, value_observed) VALUES
  ('H-WGRAFRRLVRRLARGLRR-NH2', 'MIC', 'µM', 13.9),
  ('H-WLRAFRRLVRRLARGLRR-NH2', 'MIC', 'µM', 1.7),
  ('H-WGRAFSRGVRRLARGGRG-NH2', 'MIC', 'µM', 31.8);

Please state MIC for every substance in the list that follows.
1. H-WLRAFRRLVRRLARLLRR-NH2
2. H-WGRAFRRGVRRLARGGRR-NH2

[26.6, 29.3]

---

assay: Therapeutic index, ratio of MHC10 for human RBC to geometric mean of peptide MIC for Staphylococcus aureus ATCC 29213; assay type: toxicity; settings: human red blood cells (RBC), pooled result: one value given for 9 cell lines, strains, targets or settings, read-out: TI
Field 'label' (enum: met / not met). Set to met when selectivity ratio is strictly under 8; else not met.

INSERT INTO results (substance, label_class) VALUES
  ('H-WGRAFRRLVRRLARGLRR-NH2', 'not met'),
  ('H-WGRAFSAGVHRLARGGRG-NH2', 'met'),
  ('H-WGRAFSRGVRRLARGGRG-NH2', 'met'),
  ('H-WGRAFSAGVHRLANGGNG-NH2', 'met'),
  ('H-WGEAFSAGVHRLANGGNG-NH2', 'met');

Answer whether the substance H-WLRAFRRLVRRLARLLRR-NH2 has selectivity ratio strictly less than 8 met

Is selectivity ratio strictly under 8 for the entry H-WLRAFRRLVRRLARGLRR-NH2 ? not met

---

test system: Staphylococcus aureus; experiment: Antibacterial activity against Staphylococcus aureus ATCC 29213 assessed as bacterial growth inhibition incubated for 18 to 24 hrs in presence of 150 mM NaCl by microtiter broth dilution method (reference value: 0.43 to > 71.5 uM); assay type: functional; settings: time 18-24 hrs
Measure name: MIC (µM)
Numbers only, in µM.

INSERT INTO assay_data (substance, target_or_system, value_observed) VALUES
  ('H-WLRAFRRLVRRLARLLRR-NH2', 'Staphylococcus aureus', 26.6),
  ('H-WGRAFRRLVRRLARGLRR-NH2', 'Staphylococcus aureus', 6.97),
  ('H-WGRAFRRGVRRLARGGRR-NH2', 'Staphylococcus aureus', 14.7);

We now examine a further substance.
Query MIC for H-WLRAFRRLVRRLARGLRR-NH2 1.7

---

For each of the substances below, state its MHC10.
tested on: Erythrocyte; experiment: Hemolytic activity against human red blood cells assessed as concentration required to cause 10% hemoglobin release measured after 1 hr by microplate reader analysis; type: ADME, cell-based

Could I get MHC10 for every one of these entries?
1. H-WGRAFRRLVRRLARGLRR-NH2
2. H-WLRAFRRLVRRLARGLRR-NH2

> 55.78 µM
27.22 µM

---

system: RAW264.7; experiment: Cytotoxicity against mouse RAW264.7 cells assessed as increase in cell viability at 64 uM incubated for 24 hrs by MTT assay relative to control; type: cell-based; conditions: raw264.7, 24 h
Measure name: Activity (%)
Numbers only, in %.

Reference set (7 entries):
INSERT INTO assay_data (substance, measure_name, output_unit, value_observed) VALUES
  ('H-WGRAFSAGVHRLANGGNG-NH2', 'Activity', '%', 77.58),
  ('H-WLRAFRRLVRRLARGLRR-NH2', 'Activity', '%', 40.73),
  ('H-WLRAFRRLVRRLARLLRR-NH2', 'Activity', '%', 48.25),
  ('H-WGRAFRRGVRRLARGGRR-NH2', 'Activity', '%', 74.8),
  ('H-WGRAFSAGVHRLARGGRG-NH2', 'Activity', '%', 87.22),
  ('H-WGRAFSRGVRRLARGGRG-NH2', 'Activity', '%', 85.48),
  ('H-WGRAFRRLVRRLARGLRR-NH2', 'Activity', '%', 64.79);

In the following, a different substance is considered.
Assign Activity to the following record: H-WGEAFSAGVHRLANGGNG-NH2 73.62
